Source listed as paper doi:10.1101/718155.

target or test system: S100Z
test description: FP; direct
endpoint label: Kd (µM)
State just the number; it will be interpreted in µM.

**Q:** Recorded Kd of RRLLFYKYVYKR [NCX1 (254-265) peptide] , please.
**A:** 11
